- ASSAY_INFO: Pharmacokinetic experiment in mice
- Assay type: in vivo
- EXPERIMENTAL_PARAMETERS: CD1 male mice; intravenous 2 mg/kg, oral 10 mg/kg by gavage
Consider the following compounds; for each one, report its F.
Answers are plain numbers, in %.

Qu. // lookup F for COc1cc(/C=C/c2cccc(-c3ccccc3)c2C#N)c(C(F)(F)F)cc1CN1CCCC[C@H]1C(=O)O [drawing 203]
Ans. 69.7

Qu. Return reported F; argument: Cc1cc(/C=C/c2nccc(-c3ccccc3)c2C#N)c(Cl)cc1CN1CCCC[C@H]1C(=O)O [reference compound]
Ans. 74.1

Qu. Fill blank: measured F of the compound COc1cc(/C=C/c2nccc(-c3ccccc3)c2C)c(C(F)(F)F)cc1CN1CCCC[C@H]1C(=O)O [reference compound] is ____.
Ans. 23.6

Qu. Record request: F value, item COc1cc(/C=C/c2nccc(-c3ccccc3)c2C#N)c(C(F)(F)F)cc1CN1CCCC[C@H]1C(=O)O [reference compound]
Ans. 16.4

Qu. So what does the record say about F for Cc1cc(/C=C/c2cccc(-c3ccccc3)c2C#N)c(Cl)cc1CN1CCCC[C@H]1C(=O)O [drawing 205] ?
Ans. 80.6

More entries:
Qu. Please give the measured F for this compound: COc1cc(/C=C/c2cccc(-c3ccccc3)c2C)c(C(F)(F)F)cc1CN1CCCC[C@H]1C(=O)O [drawing 201]
Ans. 72.4

----------
- ASSAY_INFO: Pharmacokinetic experiment in mice
- Format: in vivo
- EXPERIMENTAL_PARAMETERS: mouse, plasma; CD1 male mice; intravenous 2 mg/kg, oral 10 mg/kg by gavage (route of value not stated)
EXPERIMENTAL_ENDPOINT: AUC(0-inf) (ng·h/mL)
One number for each entry, in ng·h/mL.

Qu. What AUC(0-inf) value was documented for this compound, COc1cc(/C=C/c2cccc(-c3ccccc3)c2C)c(C(F)(F)F)cc1CN1CCCC[C@H]1C(=O)O [drawing 201] ?
Ans. 40600

Qu. I would be grateful if you could share the reported AUC(0-inf) for Cc1cc(/C=C/c2cccc(-c3ccccc3)c2C#N)c(Cl)cc1CN1CCCC[C@H]1C(=O)O [drawing 205] .
Ans. 16800

Qu. Look up AUC(0-inf) for this compound: COc1cc(/C=C/c2nccc(-c3ccccc3)c2C#N)c(C(F)(F)F)cc1CN1CCCC[C@H]1C(=O)O [reference compound]
Ans. 1000

Qu. Tell me the measured AUC(0-inf) of COc1cc(/C=C/c2nccc(-c3ccccc3)c2C)c(C(F)(F)F)cc1CN1CCCC[C@H]1C(=O)O [reference compound] , please.
Ans. 2300

Qu. Returns the measured AUC(0-inf) for the input compound. Input: COc1cc(/C=C/c2cccc(-c3ccccc3)c2C#N)c(C(F)(F)F)cc1CN1CCCC[C@H]1C(=O)O [drawing 203]
Ans. 7620

Field: next compound
Qu. So what does the record say about AUC(0-inf) for Cc1cc(/C=C/c2nccc(-c3ccccc3)c2C#N)c(Cl)cc1CN1CCCC[C@H]1C(=O)O [reference compound] ?
Ans. 8580

----------
- TESTED_SYSTEM: PD-1/PD-L1 (Homo sapiens (Human))
- Sequence (Q9NZQ7 19-238): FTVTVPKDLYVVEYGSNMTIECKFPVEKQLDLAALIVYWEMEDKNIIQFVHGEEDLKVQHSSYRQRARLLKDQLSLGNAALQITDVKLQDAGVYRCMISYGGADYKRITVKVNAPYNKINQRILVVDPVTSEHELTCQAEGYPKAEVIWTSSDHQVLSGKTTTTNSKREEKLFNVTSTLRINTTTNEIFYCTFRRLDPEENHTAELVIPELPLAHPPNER
- ASSAY_INFO: Homogeneous time-resolved fluorescence (HTRF) binding assay
- EXPERIMENTAL_PARAMETERS: CisBio kit, read-out: IC50 of compounds binding to PD-1/PD-L1
EXPERIMENTAL_ENDPOINT: pIC50
One number for each entry, as −log10 of the molar value.

Example entries begin here.
Qu. Quick one: pIC50 for `Cc1c(/C=C/c2cc(OCCF)c(CN3CCCC[C@H]3C(=O)O)cc2C(F)(F)F)cccc1-c1ccccc1` ?
Ans. 8.55

Qu. What value of measured pIC50 is listed for `COCCOc1cc(/C=C/c2cccc(-c3ccccc3)c2C#N)c(C)cc1CN1CCOC[C@H]1C(=O)O` ?
Ans. 8.04

Qu. # query: pIC50 of entry `Cc1cc(CN2CCCC[C@H]2C(=O)O)c(OCC#N)cc1/C=C/c1cccc(-c2ccccc2)c1C#N`
Ans. 8.10

Qu. Record request: pIC50 value, item `COc1cc(/C=C/c2cccc(-c3ccccc3)c2C)c(Cl)cc1CN1CCCC[C@H]1C(=O)O`
Ans. 8.17

Qu. Any idea what pIC50 was measured for `Cc1cc(CN2CCCC[C@H]2C(=O)O)c(OCCCCF)cc1/C=C/c1cccc(-c2ccccc2)c1C` ?
Ans. 8.16

Could you report pIC50 for every entry in the following list?
1. COc1cc(/C=C/c2cccc(-c3ccccc3)c2CF)c(C(F)(F)F)cc1CNCCO
2. COc1cc(/C(F)=C/c2cccc(-c3ccccc3)c2C)c(C(F)(F)F)cc1CN1CCCC[C@H]1C(=O)O
3. COCCOc1cc(C)c(/C=C/c2cccc(-c3ccccc3)c2C#N)cc1CN1CCOC[C@H]1C(=O)O
4. Cc1cc(CN2CCOC[C@H]2C(=O)O)c(OCCO)cc1/C=C/c1cccc(-c2ccccc2)c1C#N
5. COc1cc(/C=C(\Br)c2cccc(-c3ccccc3)c2C)c(C)cc1CNCCO
6. Cc1cc(CN[C@@](C)(CO)C(=O)O)c(C)cc1/C=C/c1cccc(-c2ccccc2)c1C#N
7. COc1cc(/C=C/c2cccc(-c3ccccc3)c2Cl)c(C(F)(F)F)cc1CN1CCCC[C@H]1C(=O)O

Ans.
8.15
7.53
6.58
8.11
6.58
8.47
9.17

Working through the 5 molecules below one at a time, give pIC50 for each.
1. N#Cc1c(/C=C/c2cc(CO)c(CN3CCCC[C@H]3C(=O)O)cc2C(F)(F)F)cccc1-c1ccccc1
2. COc1cc(/C(F)=C/c2cccc(-c3ccccc3)c2C)c(C(F)(F)F)cc1CNCCO
3. COCCOc1cc(/C=C/c2cccc(-c3ccccc3)c2C#N)c(C)cc1CN1CCCC[C@H]1C(=O)O
4. Cc1cc(CN2CCCC[C@H]2C(=O)O)c(OCc2cc(I)ccn2)cc1/C=C/c1cccc(-c2ccccc2)c1C
5. Cc1cc(OCCO)c(CN2CCCC[C@H]2C(=O)O)cc1/C=C/c1cccc(-c2ccccc2)c1C#N

Ans.
[8.43, 7.32, 8.17, 8.27, 6.55]

Quick one: give me pIC50 for each item below, same order please.
1. Cc1cc(CN2CCCC[C@H]2C(=O)O)c(OCCCCC#N)cc1/C=C/c1cccc(-c2ccccc2)c1C#N
2. Cc1cc(CN2CCNC[C@H]2C(=O)O)c(OCCCCC#N)cc1/C=C/c1cccc(-c2ccccc2)c1C#N

Ans.
8.68
7.65

Dear colleague, could you please provide pIC50 for the molecules listed below?
1. Cc1c(/C=C/c2cc(OCc3cccc(I)c3)c(CN3CCCC[C@H]3C(=O)O)cc2C(F)(F)F)cccc1-c1ccccc1
2. Cc1cc(/C=C/c2cccc(-c3ccccc3)c2C)c(Cl)cc1CN1CCNC[C@H]1C(=O)O
3. Cc1cc(CN2CCCC[C@H]2C(=O)O)c(C)cc1/C=C/c1cccc(-c2ccccc2)c1C#N
4. COc1cc(/C=C/c2cccc(-c3ccccc3)c2C)c(C(F)(F)F)cc1CN1CCCC[C@H]1C(=O)O

Ans.
1: 8.23; 2: 6.73; 3: 8.38; 4: 8.80
